Source: patent US20190256509A1

Target: KDM5B enzyme (Homo sapiens, UniProt Q9UGL1)
Sequence (Q9UGL1 whole entry): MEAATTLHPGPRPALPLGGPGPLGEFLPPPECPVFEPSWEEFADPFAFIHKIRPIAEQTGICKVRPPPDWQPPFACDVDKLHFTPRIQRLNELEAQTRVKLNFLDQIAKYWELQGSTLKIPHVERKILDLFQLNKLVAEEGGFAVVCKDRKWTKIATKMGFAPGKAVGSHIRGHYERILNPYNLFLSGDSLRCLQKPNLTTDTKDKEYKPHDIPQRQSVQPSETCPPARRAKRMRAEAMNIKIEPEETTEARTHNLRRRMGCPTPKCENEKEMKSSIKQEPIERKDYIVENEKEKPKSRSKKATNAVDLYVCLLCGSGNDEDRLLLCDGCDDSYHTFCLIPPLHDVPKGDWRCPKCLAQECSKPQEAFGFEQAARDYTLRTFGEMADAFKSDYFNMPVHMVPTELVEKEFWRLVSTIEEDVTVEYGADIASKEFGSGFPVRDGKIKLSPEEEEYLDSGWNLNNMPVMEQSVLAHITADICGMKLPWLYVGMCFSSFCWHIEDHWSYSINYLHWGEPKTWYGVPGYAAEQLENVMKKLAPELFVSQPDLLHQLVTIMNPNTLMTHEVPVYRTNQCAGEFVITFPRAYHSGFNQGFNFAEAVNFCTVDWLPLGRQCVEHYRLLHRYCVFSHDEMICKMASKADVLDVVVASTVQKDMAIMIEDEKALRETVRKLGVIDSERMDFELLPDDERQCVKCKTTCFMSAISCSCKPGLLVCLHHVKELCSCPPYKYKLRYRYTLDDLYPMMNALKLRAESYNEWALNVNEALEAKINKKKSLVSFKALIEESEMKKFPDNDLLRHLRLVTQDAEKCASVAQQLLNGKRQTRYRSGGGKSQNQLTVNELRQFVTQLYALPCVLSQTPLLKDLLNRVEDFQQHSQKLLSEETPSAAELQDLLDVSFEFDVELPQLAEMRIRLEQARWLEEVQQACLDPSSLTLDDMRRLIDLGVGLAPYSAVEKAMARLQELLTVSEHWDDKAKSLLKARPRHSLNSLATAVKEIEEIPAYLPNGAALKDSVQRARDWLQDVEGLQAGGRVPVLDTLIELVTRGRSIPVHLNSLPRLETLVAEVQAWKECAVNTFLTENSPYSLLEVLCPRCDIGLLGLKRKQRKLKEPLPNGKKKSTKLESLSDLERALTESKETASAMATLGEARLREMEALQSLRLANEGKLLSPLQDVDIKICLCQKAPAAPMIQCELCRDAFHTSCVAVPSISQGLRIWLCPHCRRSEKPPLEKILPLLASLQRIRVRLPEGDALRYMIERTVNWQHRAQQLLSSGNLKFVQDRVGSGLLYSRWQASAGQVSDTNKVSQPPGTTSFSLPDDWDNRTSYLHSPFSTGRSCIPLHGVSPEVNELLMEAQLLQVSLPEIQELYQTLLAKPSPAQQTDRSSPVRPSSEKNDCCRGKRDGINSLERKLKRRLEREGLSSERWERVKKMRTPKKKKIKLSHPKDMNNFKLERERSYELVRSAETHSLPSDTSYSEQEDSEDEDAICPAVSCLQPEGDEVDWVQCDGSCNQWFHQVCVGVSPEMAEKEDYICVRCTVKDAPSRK
reported-endpoint: IC50

Completed entries (count: 3):
compound-smiles | reported-endpoint | observed-result
COc1ccccc1CNc1ccc2nccn2c1C(=O)O | IC50 | > 1 µM
N#Cc1ccc(CNc2ccc3nccn3c2C(=O)O)cc1 | IC50 | ≤ 0.5 µM
COc1cccc(CNc2ccc3nccn3c2C(=O)O)c1 | IC50 | ≤ 0.5 µM

For each of the compounds below, note its IC50.
1. O=C(O)c1c(NCc2ccccc2C(F)(F)F)ccc2nccn12
2. O=C(O)c1cnc2cc(Oc3ccc4ccncc4c3)ccn12
3. O=C(O)c1c(NCc2ccc3occc3c2)ccc2nccn12
4. O=C(O)c1c(NCc2cc(Cl)ccc2F)ccc2nccn12
5. O=C(O)c1c(NCc2ccc3c(c2)OC(F)(F)O3)ccc2nccn12
6. CCOc1ccccc1CNc1ccc2nccn2c1C(=O)O
7. O=C(O)c1c(NCc2ccccc2-n2cccn2)ccc2nccn12

["0.5 to 1 µM", "> 1 µM", "0.5 to 1 µM", "> 1 µM", "0.5 to 1 µM", "> 1 µM", "≤ 0.5 µM"]

----------
Notes on IC50 obtained with UniProtKB Q9UGL1.

compound-smiles | IC50
O=C(O)c1c(NCc2ccc(F)c(C(F)(F)F)c2)ccc2nccn12 | 500 to 1000 nM
Cc1ccc(CNc2ccc3nccn3c2C(=O)O)cc1F | > 1000 nM
COc1cc(Cl)ccc1OCc1cc(C(=O)O)n2ccnc2c1 | ≤ 500 nM
Cc1ccc(F)c(CNc2ccc3nccn3c2C(=O)O)c1F | > 1000 nM
CN(C)Cc1ccccc1CNc1ccc2nccn2c1C(=O)O | > 1000 nM

For each of the compounds below, note its IC50.
1. COc1cc(Cl)ccc1COc1ccc2nccn2c1C(=O)O
2. O=C(O)c1c(NCc2ccc(F)cc2C(F)(F)F)ccc2nccn12

1: > 1000 nM; 2: ≤ 500 nM

For each of the compounds below, note its IC50.
1. O=C(O)c1c(NCc2ccccc2N2CCOCC2)ccc2nccn12
2. O=C(O)c1c(NCc2cc(F)cc(C(F)(F)F)c2)ccc2nccn12
3. O=C(O)c1c(NCc2ccc(-n3ccnc3)cc2)ccc2nccn12
4. Cc1cc(F)ccc1CNc1ccc2nccn2c1C(=O)O

1. > 1000 nM
2. > 1000 nM
3. ≤ 500 nM
4. 500 to 1000 nM

For each of the compounds below, note its IC50.
1. O=C(O)c1c(NCc2cccc(OC(F)F)c2)ccc2nccn12
2. Cc1ccc(F)cc1CNc1ccc2nccn2c1C(=O)O
3. O=C(O)c1c(NCc2cc(Cl)ccc2Cl)ccc2nccn12
4. CS(=O)(=O)c1ccccc1CNc1ccc2nccn2c1C(=O)O
5. CCN1CCN(c2ccc(CNc3ccc4nccn4c3C(=O)O)c3c2CCCC3)CC1

["> 1000 nM", "> 1000 nM", "500 to 1000 nM", "≤ 500 nM", "> 1000 nM"]

For each of the compounds below, note its IC50.
1. COc1ccc(-c2cccc(CNc3ccc4nccn4c3C(=O)O)c2)cc1
2. O=C(O)c1c(NCc2ccc(Cl)cc2F)ccc2nccn12
3. COc1cc(CNc2ccc3nccn3c2C(=O)O)ccc1F
4. O=C(O)c1c(NCc2ccc(C(F)(F)F)cc2F)ccc2nccn12
5. O=C(O)c1c(NCc2ccc(Cl)cc2Cl)ccc2nccn12

> 1000 nM
> 1000 nM
500 to 1000 nM
500 to 1000 nM
500 to 1000 nM
